System: HCT-116 colon
Test: NCI tumour cell line growth inhibition, 48 h; in the data active = GI50 below about 0.43 µM; inactive = the rest
Choose one outcome from this list and give only that: 1 (yes) (active), 0 (no) (inactive)

Some entries whose results are on file:
molecule: O=C(/C=C/c1cccs1)Nc1ncc(Cc2ccccc2F)s1
assigned-class: 1 (yes)
//
molecule: O=C(Nc1ccc(-c2nc3ccc(NC(=O)c4ccc(Cl)cc4)cc3[nH]2)cc1)c1ccc(Cl)cc1
assigned-class: 0 (no)
//
molecule: CCc1ccc(/C=C2/SC(=S)NC2=O)cc1
assigned-class: 0 (no)
//
molecule: Cn1cc(/C=C2\C(=O)Nc3cccnc32)c2ccccc21
assigned-class: 0 (no)
//
molecule: N#CC(C#N)=C/C=C/c1cccc([N+](=O)[O-])c1
assigned-class: 1 (yes)
//
molecule: CCN(CC)c1ccc(/C=N\NC(=O)c2cccc(Nc3ccnc(C(F)(F)F)c3)c2)c(O)c1
assigned-class: 1 (yes)

Give the logged outcome of this assay for the following molecule: CC(=O)OCC1OC(O[C@@H]2C[C@H]3C(C)(C)[C@H](OC(C)=O)CC[C@]3(C)[C@H]3CC[C@@H]4[C@]5(CC[C@@]4(C)[C@@]32C)O[C@@H]([C@H](O)C(C)(C)O)C[C@@H]5C)C(O)C(O)C1O (stereo not given in full)
0 (no)

Check the results log: what was the call for COc1cc(C=NCC(=O)CSC(c2ccccc2)c2ccccc2)cc(OC)c1OC ?
0 (no)

Per the records of this test, what outcome belongs to CN1C=CN(Cc2ccc(-c3ccccn3)nc2)[CH-]1.CN1C=CN(Cc2ccc(-c3ccccn3)nc2)[CH-]1.[Au+3] ?
0 (no)

Recorded test call requested for Fc1cc(Nc2ccc3c(OCCCN4CCOCC4)cccc3n2)ccc1Cl
0 (no)

// data source = PubChem BioAssay (NCI)
